target: C-C chemokine receptor type 5 (Homo sapiens); assay: biochemical; assay type: cell-based, CHO
Sequence (P51681 whole entry): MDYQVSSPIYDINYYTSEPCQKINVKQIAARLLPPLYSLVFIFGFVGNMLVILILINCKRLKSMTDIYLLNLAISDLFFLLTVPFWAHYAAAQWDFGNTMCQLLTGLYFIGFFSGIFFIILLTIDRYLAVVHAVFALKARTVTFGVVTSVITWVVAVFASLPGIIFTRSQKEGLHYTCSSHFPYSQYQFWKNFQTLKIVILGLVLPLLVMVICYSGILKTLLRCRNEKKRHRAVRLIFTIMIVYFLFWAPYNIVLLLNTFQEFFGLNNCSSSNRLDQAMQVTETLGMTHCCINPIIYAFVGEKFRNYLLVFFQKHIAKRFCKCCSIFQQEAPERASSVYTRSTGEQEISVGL
Description: Displacement of [125I]MIP1alpha from human CCR5 expressed in CHO cells
Criterion: IC50 strictly under 0.8 nM. Met: true (1). Not met: false (0).

Solved cases (5 shown):
{"line_notation": "Cn1nnc(-c2ccc(CCCC3(O)CCN(C[C@H]4CN(CC5CCCCC5)C[C@@H]4c4ccccc4)CC3)cc2)n1", "tested_target": "C-C chemokine receptor type 5 (Homo sapiens)", "assigned_label": "true (1)"}
{"line_notation": "CCn1nc(-c2ccc(CN)cc2)cc1C1CCN(C[C@H]2CN([C@@H](C(=O)O)C3CCCCC3)C[C@@H]2c2ccccc2)CC1", "tested_target": "C-C chemokine receptor type 5 (Homo sapiens)", "assigned_label": "false (0)"}
{"line_notation": "O=C(O)[C@@H](CC1CC1)N1C[C@H](CN2CCC(c3cnc(Cc4ccccc4)s3)CC2)[C@@H](c2ccccc2)C1", "tested_target": "C-C chemokine receptor type 5 (Homo sapiens)", "assigned_label": "true (1)"}
{"line_notation": "O=C(O)[C@@H](CC1CCC1)N1C[C@H](CN2CCC(c3cn4cccnc4n3)CC2)[C@@H](c2cccc(F)c2)C1", "tested_target": "C-C chemokine receptor type 5 (Homo sapiens)", "assigned_label": "false (0)"}
{"line_notation": "O=C(O)[C@@H](CC1CCC1)N1C[C@H](CN2CCC(c3cnc(Cc4ccccc4)s3)CC2)[C@@H](c2ccccc2)C1", "tested_target": "C-C chemokine receptor type 5 (Homo sapiens)", "assigned_label": "true (1)"}

As a next step, examine the compound that follows.
Q: In the record for CCc1nc(Cc2ccccc2)[nH]c1C1CCN(C[C@H]2CN([C@H](CC3CCC3)C(=O)O)C[C@@H]2c2ccccc2)CC1 , is IC50 less than 0.8 nM?
A: true (1)
